Answer each item with its documented mean fluorescence relative to chimera.
- systemTested: T1, pig CD47 (pig, UniProt Q9GKE8 19-303)
- T1 construct: whole, on cells; also called CD47 on porcine RBCs
- T1 sequence (looked up): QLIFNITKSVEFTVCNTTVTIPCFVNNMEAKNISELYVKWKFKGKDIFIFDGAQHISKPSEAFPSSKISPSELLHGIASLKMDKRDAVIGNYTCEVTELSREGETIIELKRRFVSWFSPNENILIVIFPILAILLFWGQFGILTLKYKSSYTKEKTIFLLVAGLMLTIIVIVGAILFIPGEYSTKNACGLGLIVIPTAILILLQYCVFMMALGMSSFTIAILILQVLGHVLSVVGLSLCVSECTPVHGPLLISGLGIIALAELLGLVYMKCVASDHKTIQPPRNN
- assay: FACS, pig RBCs, supernatant 10 ng/ml
Give bare numbers.

Below, 6 binders whose answers are already recorded.
binder: chimeric antibody VxP037-01LC-Pro/VxP037-01HC-Pro (antibody, human IgG1, kappa, V domains shown, also called Chimera; VxP037-01LC/VxP037-01HC) VH: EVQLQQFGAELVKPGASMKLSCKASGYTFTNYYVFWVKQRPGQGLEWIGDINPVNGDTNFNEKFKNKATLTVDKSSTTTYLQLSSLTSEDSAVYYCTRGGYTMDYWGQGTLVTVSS VL: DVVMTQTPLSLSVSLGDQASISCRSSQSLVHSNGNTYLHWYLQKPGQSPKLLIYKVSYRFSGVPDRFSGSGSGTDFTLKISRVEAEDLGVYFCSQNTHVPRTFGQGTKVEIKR
mean fluorescence relative to chimera: 1
--
binder: Clone 10 (pVxK7b-037-hum10-LC / pVxK7b-037-hum10-HC) (antibody, human IgG1, kappa, V domains shown) VH: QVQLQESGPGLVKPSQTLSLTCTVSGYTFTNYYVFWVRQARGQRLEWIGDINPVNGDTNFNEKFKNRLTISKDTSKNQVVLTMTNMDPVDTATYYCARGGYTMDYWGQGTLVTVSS VL: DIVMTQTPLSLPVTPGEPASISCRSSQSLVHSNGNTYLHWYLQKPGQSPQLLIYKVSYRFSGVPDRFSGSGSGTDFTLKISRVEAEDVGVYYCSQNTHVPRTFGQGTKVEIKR
mean fluorescence relative to chimera: 1.5
--
binder: Clone 12 (pVxK7b-037-hum12-LC / pVxK7b-037-hum12-HC) (antibody, human IgG1, kappa, V domains shown) VH: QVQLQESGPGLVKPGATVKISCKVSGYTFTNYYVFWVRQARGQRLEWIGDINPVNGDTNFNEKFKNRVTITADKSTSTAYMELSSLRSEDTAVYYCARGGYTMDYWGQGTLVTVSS VL: DIVMTQTPLSLPVTPGEPASISCRSSQSLVHSNGNTYLHWYQQKPGKAPKLLIYKVSYRFSGVPDRFSGSGSGTDFTLKISRVEAEDVGVYYCSQNTHVPRTFGQGTKVEIKR
mean fluorescence relative to chimera: 1.4
--
binder: Clone 24 (pVxK7b-037-hum24-LC / pVxK7b-037-hum24-HC) (antibody, human IgG1, kappa, V domains shown, also called Cl 24) VH: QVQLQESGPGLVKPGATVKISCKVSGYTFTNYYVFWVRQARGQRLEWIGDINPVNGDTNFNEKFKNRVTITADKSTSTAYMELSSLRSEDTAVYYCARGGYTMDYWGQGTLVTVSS VL: AIQLTQSPSSLSASVGDRVTITCRSSQSLVHSNGNTYLHWYQQKPGQAPRLLIYKVSYRFSGVPSRFSGSGSGTEFTLTISSLQPDDFATYYCSQNTHVPRTFGQGTKVEIKR
mean fluorescence relative to chimera: 1.1
--
binder: Clone 4 (pVxK7b-037-hum04-LC / pVxK7b-037-hum04-HC) (antibody, human IgG1, kappa, V domains shown) VH: QVQLQESGPGLVKPSQTLSLTCTVSGYTFTNYYVFWVRQAPGKGLEWVSDINPVNGDTNFNEKFKNRVTISVDTSKNQFSLKLSSVTAADTAVYYCARGGYTMDYWGQGTLVTVSS VL: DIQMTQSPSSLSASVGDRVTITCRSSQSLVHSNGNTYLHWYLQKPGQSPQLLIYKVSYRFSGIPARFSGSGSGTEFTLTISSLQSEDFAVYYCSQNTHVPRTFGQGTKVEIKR
mean fluorescence relative to chimera: 0.6
--
binder: Clone 21 (pVxK7b-037-hum21-LC / pVxK7b-037-hum21-HC) (antibody, human IgG1, kappa, V domains shown) VH: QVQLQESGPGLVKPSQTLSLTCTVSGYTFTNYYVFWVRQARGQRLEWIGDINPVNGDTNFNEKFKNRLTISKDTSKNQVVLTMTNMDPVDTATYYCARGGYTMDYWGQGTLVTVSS VL: AIQLTQSPSSLSASVGDRVTITCRSSQSLVHSNGNTYLHWYQQKPGQAPRLLIYKVSYRFSGVPDRFSGSGSGTDFTLKISRVEAEDVGVYYCSQNTHVPRTFGQGTKVEIKR
mean fluorescence relative to chimera: 1.4

State recorded mean fluorescence relative to chimera for all listed binders.
1. Clone 7 (pVxK7b-037-hum07-LC / pVxK7b-037-hum07-HC) (antibody, human IgG1, kappa, V domains shown) VH: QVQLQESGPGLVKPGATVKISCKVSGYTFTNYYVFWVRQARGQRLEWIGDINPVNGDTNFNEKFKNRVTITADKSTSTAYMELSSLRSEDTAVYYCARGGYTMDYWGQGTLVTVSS VL: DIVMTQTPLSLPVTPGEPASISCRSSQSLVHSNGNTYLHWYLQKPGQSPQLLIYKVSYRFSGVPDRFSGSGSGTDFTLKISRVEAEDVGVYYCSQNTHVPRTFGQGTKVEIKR
2. Clone 2 (pVxK7b-037-hum02-LC / pVxK7b-037-hum02-HC) (antibody, human IgG1, kappa, V domains shown) VH: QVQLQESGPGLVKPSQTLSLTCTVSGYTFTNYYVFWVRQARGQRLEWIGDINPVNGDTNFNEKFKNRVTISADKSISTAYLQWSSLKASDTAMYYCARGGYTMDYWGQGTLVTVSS VL: DVVMTQSPLSLPVTLGQPASISCRSSQSLVHSNGNTYLHWYQQKPGQAPRLLIYKVSYRFSGVPSRFSGSGSGTEFTLTISSLQPDDFATYYCSQNTHVPRTFGQGTKVEIKR
3. Clone 11 (pVxK7b-037-hum11-LC / pVxK7b-037-hum11-HC) (antibody, human IgG1, kappa, V domains shown, also called Cl 11) VH: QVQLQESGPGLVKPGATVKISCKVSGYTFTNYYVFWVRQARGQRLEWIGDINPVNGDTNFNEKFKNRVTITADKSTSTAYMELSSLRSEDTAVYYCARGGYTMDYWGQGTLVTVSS VL: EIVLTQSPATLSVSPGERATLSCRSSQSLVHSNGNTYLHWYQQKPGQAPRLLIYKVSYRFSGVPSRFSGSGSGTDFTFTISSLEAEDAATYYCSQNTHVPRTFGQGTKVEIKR
4. Clone 22 (pVxK7b-037-hum22-LC / pVxK7b-037-hum22-HC) (antibody, human IgG1, kappa, V domains shown) VH: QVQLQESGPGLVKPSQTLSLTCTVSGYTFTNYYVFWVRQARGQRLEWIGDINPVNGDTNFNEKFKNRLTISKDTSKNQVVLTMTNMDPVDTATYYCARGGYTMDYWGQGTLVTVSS VL: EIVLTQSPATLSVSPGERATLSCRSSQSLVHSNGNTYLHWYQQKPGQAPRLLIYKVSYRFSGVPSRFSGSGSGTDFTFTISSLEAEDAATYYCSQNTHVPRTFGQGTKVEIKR

Result:
0.9
1.2
1.2
1.4

All values here come from patent US20180051081A1.
